Source: paper PMC6112376

Entries with their measured MMP assays efficacy (%) Rat Hepatocytes, system rat primary hepatocytes:

compound: ClC1=C(Cl)C2(Cl)C3C4C=CC(C4)C3C1(Cl)C2(Cl)Cl (stereo not drawn) [Aldrin]
MMP assays efficacy (%) Rat Hepatocytes: inactive
--
compound: Cc1ccc2cc3c(ccc4ccccc43)c3c2c1CC3 [Compound 3-Methylcholanthrene]
MMP assays efficacy (%) Rat Hepatocytes: inactive
--
compound: Cc1oc(C)c(C(=O)Nc2ccccc2)c1C [Methfuroxam]
MMP assays efficacy (%) Rat Hepatocytes: inactive
--
compound: CCC(C)(CC)c1cc(NC(=O)c2c(OC)cccc2OC)on1 [Isoxaben]
MMP assays efficacy (%) Rat Hepatocytes: inactive
--
compound: C=CC[C@]1(O)CC[C@H]2[C@@H]3CCC4=CCCC[C@@H]4[C@H]3CC[C@@]21C [Allylestrenol]
MMP assays efficacy (%) Rat Hepatocytes: inactive
--
compound: COC(=O)c1c(C)cc(O)c(C)c1O
MMP assays efficacy (%) Rat Hepatocytes: -81±57%

* * *

# System: rat primary hepatocytes
# test_name: MMP assay in rat primary hepatocytes
# condition_info: rat hepatocytes; mean ± SD of three experiments
assay_metric: MMP assays efficacy (%) Rat Hepatocytes

molecule: CCC(=O)O[C@]1(C(=O)SCF)[C@H](C)C[C@H]2[C@@H]3C[C@H](F)C4=CC(=O)C=C[C@]4(C)[C@@]3(F)[C@@H](O)C[C@@]21C [Fluticasone propionate]
measured_target: rat primary hepatocytes
assay_metric: MMP assays efficacy (%) Rat Hepatocytes
result: inactive
//
molecule: C#C[C@]1(OC(=O)CCCCCC)CC[C@H]2[C@@H]3CCC4=CC(=O)CC[C@@H]4[C@H]3CC[C@@]21C [Noristerat]
measured_target: rat primary hepatocytes
assay_metric: MMP assays efficacy (%) Rat Hepatocytes
result: inactive
//
molecule: CN1CC(=O)NC1=NC(=O)Nc1cccc(Cl)c1 [Fenobam; McN-3377]
measured_target: rat primary hepatocytes
assay_metric: MMP assays efficacy (%) Rat Hepatocytes
result: inactive

* * *

Reported IC50 values for a set of molecules
# System: rat primary hepatocytes
# test_name: MMP assay in rat primary hepatocytes
# condition_info: Rattus norvegicus, Hepatocyte, 1 h, read-out: Rat hepatocytes IC50 (MMP)
assay_metric: IC50 (µM)

molecule: CC(C)(C)c1cc([N+](=O)[O-])cc([N+](=O)[O-])c1O [Dinoterb]
assay_metric: IC50
measured_number: 2.39
--
molecule: O=C(Nc1ccc(Oc2ccc(Cl)cc2)c(Cl)c1)c1cc(I)cc(I)c1O [Rafoxanide, reference compound]
assay_metric: IC50
measured_number: 4.5
--
molecule: NNc1nc(-c2ccccc2)cs1 [2-Hydrazino-4-phenylthiazole]
assay_metric: IC50
measured_number: 54.7
--
molecule: CO[C@H]1/C=C/O[C@@]2(C)Oc3c(C)c(O)c4c(O)c(c(/C=N/N5CCN(C)CC5)c(O)c4c3C2=O)NC(=O)/C(C)=C\C=C\[C@H](C)[C@H](O)[C@@H](C)[C@@H](O)[C@@H](C)[C@H](OC(C)=O)[C@@H]1C [Rifampicin, reference compound]
assay_metric: IC50
measured_number: 41.4
--
molecule: O=C1c2c(O)ccc([N+](=O)[O-])c2C(=O)c2c([N+](=O)[O-])ccc(O)c21 [1,8-Dihydroxy-4,5-dinitroanthraquinone]
assay_metric: IC50
measured_number: 16.1

* * *

# System: rat primary hepatocytes
# test_name: MMP assay in rat primary hepatocytes
# condition_info: rat hepatocytes; mean ± SD of three experiments

compound: CCCCCCCCCCCCn1cc[n+](C)c1.F[P-](F)(F)(F)(F)F
MMP assays efficacy (%) Rat Hepatocytes: -111
//
compound: CC(=O)Nc1ccc(NC(=S)NC(=O)c2ccc(C(C)(C)C)cc2)cc1
MMP assays efficacy (%) Rat Hepatocytes: -41
//
compound: C(=C(c1ccccc1)c1ccccc1)c1ccccc1
MMP assays efficacy (%) Rat Hepatocytes: -74
//
compound: Nc1ccc2cc3ccc(N)cc3nc2c1.Nc1ccc2cc3ccc(N)cc3nc2c1.O=S(=O)(O)O [Proflavin hemisulfate]
MMP assays efficacy (%) Rat Hepatocytes: -94
//
compound: Cc1cc(O)c(C(C)(C)C)cc1C(C)(C)C
MMP assays efficacy (%) Rat Hepatocytes: -103
//
compound: CCCCCCCCOc1ccc(C(=O)O)cc1
MMP assays efficacy (%) Rat Hepatocytes: -57
